- System: MOLT-4
- test.summary: NCI tumour cell line growth inhibition, 48 h
The source made the active and inactive calls. Cut-off read from the data, not from the text of the source: active = GI50 up to about 1.1 µM and inactive = higher.
Outcome codes: 1 (yes) for active, 0 (no) for inactive

- compound: "N#CC1(C#N)C(c2ccccc2)NC23CCCCC2C1(C#N)C(=O)N3 (configuration not stated)"
  category: "0 (no)"
- compound: "Cc1cc(C)nc(NC(=O)c2ccc(Br)s2)c1"
  category: "0 (no)"
- compound: "COc1ccc(-c2cc(N3CCN(c4ccccc4)CC3)c(C#N)c(=O)o2)cc1"
  category: "0 (no)"
- compound: "CC(=O)OCC(OC(C)=O)C(OC(C)=O)C(OC(C)=O)C(=O)CNn1c(-c2ccccc2)nc2ccc(Br)cc2c1=O (configuration not stated)"
  category: "0 (no)"
- compound: "CC(C)OP(=O)(OC(C)C)/C(F)=N/Nc1ccc([N+](=O)[O-])cc1"
  category: "0 (no)"
- compound: "COC(=O)/C=C1\\C(=O)Nc2ccc(Br)cc21"
  category: "1 (yes)"
- compound: "O=C(Cn1c(=O)ccn(C2OC(CO)C(O)C2F)c1=O)c1ccc(F)cc1 (configuration not stated)"
  category: "0 (no)"
- compound: "CCOC(=O)CC[C@H](N)C(=O)N[C@@H](Cc1ccc(N(CCCl)CCCl)cc1)C(=O)OCC"
  category: "1 (yes)"
- compound: "CCCC(=O)N[C@H]1CCc2cc(OC)c(OC)c(OC)c2-c2ccc(SC)c(=O)cc21"
  category: "1 (yes)"
- compound: "Cc1c2ccncc2c(C)c2c1[nH]c1ccc(OCCN(C)C)cc12"
  category: "1 (yes)"
- compound: "O=C(Nc1ccccn1)c1cc2c(cc1Cl)Sc1nccn1S2(=O)=O"
  category: "0 (no)"
- compound: "C=C(c1ccccc1)[C@@]1(O)CC[C@@H]1N(CC#N)Cc1ccccc1"
  category: "0 (no)"
- compound: "O=[N+]([O-])C(C(Cl)=C(Cl)Cl)=C(N(Cc1ccccc1)Cc1ccccc1)N(Cc1ccccc1)Cc1ccccc1"
  category: "0 (no)"
- compound: "O=C1[C@H]2ON(c3ccccc3)C(c3ccccc3F)[C@H]2C(=O)N1c1ccc(Cc2ccc(N3C(=O)[C@@H]4ON(c5ccccc5)C(c5ccccc5F)[C@@H]4C3=O)cc2)cc1 (some centres not stated)"
  category: "0 (no)"
- compound: "COc1ccc(C(C#N)NNc2nc(C)cc(O)n2)cc1OC (configuration not stated)"
  category: "0 (no)"
- compound: "CN(CCc1ccc(Cl)c(Cl)c1)CCN(C)CCN1CCCC1"
  category: "0 (no)"
- compound: "O=C1CCCc2c(O)ccc(O)c21"
  category: "0 (no)"
